Target: 5HT2B (Homo sapiens, UniProt P41595)
Construct: expressed in transfected cells
Sequence (P41595 whole entry): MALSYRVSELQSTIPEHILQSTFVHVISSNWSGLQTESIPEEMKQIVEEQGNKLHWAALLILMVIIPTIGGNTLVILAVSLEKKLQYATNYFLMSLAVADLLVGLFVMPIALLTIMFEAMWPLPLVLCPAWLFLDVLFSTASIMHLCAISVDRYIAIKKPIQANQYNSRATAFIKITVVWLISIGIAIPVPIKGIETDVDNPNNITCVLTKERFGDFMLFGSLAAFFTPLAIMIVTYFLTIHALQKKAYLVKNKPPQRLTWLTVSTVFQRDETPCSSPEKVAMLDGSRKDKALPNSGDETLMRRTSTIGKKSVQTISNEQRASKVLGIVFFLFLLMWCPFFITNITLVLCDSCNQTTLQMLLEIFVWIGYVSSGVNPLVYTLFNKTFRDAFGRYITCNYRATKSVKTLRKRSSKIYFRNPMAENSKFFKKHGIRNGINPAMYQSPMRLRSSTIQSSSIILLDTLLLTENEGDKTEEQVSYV
Experiment: Cell assay using human cells, 5HT2B (radioligand binding)
Conditions: Table I
pKi: −log10 of the molar value. Where a name gives a salt, the structure may show the parent alone.
assayMetric: pKi

Consider the reported pKi for these compounds:
compound	reportedResult
COc1ccc(CC2N[C@@H]3CCCC[C@H]3c3c2[nH]c2c(Cl)cccc32)cc1OC (relative stereo) [Example 12, hydrochloride]	6.92
Clc1cccc2c3c([nH]c12)CN[C@@H]1CCCC[C@@H]31 (relative stereo) [Example 7, hydrochloride]	6.18

I = COc1ccc(CC2N[C@@H]3CCCC[C@H]3c3c2[nH]c2c(C)cc(C)cc32)cc1OC (relative stereo) [Example 13, hydrochloride]
II = COc1ccc(CC2N[C@@H]3CCCC[C@H]3c3c2[nH]c2ccc(C)cc32)cc1OC (relative stereo) [Example 11, hydrochloride]
III = COc1ccc(CC2N[C@@H]3CCCCC[C@H]3c3c2[nH]c2ccc(C)cc32)cc1OC (relative stereo) [Example 14, hydrochloride]
IV = COc1ccc(CC2N[C@@H]3CCC[C@H]3c3c2[nH]c2ccc(C)cc32)cc1OC (relative stereo) [Example 8, hydrochloride]
Request: In this exercise, place the 4 compounds in ascending sequence of their recorded pKi. Field: ranking. Enter the labels in the order requested.
Result: III, I, II, IV
(III: 5.45, I: 6.77, II: 7.78, IV: 8.02)
